Reported pEC50 by item:
- testedTarget: human α7 nicotinic acetylcholine receptor (HEK cell line stably expressing human RIC-3 and human α7) (Homo sapiens)
- Construct: host or cells: HEK cell line (PrecisION hnAChR α7/RIC-3)
- Sequence (P36544 23-502): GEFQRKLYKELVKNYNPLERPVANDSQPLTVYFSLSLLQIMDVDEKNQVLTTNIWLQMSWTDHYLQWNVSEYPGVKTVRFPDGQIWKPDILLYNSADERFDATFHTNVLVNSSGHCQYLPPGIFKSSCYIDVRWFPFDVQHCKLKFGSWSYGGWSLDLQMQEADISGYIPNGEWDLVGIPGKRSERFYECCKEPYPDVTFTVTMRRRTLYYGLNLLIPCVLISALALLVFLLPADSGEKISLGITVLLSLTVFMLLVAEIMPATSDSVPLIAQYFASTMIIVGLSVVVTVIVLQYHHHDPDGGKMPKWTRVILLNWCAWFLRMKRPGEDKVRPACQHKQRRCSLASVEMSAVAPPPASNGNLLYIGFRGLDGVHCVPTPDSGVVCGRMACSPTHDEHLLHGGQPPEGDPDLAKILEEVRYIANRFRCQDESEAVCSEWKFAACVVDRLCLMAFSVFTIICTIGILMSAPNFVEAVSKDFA
- testName: Automated patch-clamp electrophysiology functional assay (Assay A), IonFlux HT, whole-cell population patch
- Format: cell-based
- experimentalParameters: HEK cells expressing human α7/RIC-3; test compound with or without 40 μM acetylcholine; holding potential −60 mV; room temperature; read-out: α7 nAChR Potency
pEC50: −log10 of the molar value.

These recorded examples may help you get a feel for the data.
| compound | pEC50 |
| --- | --- |
| NS(=O)(=O)N1CCC2(CC1)C(c1nc(-c3ccnn3C3CC3)no1)C2(F)F (stereo not drawn) [Example C14] | 6.30 to 7.00 |
| NS(=O)(=O)N1CCC2(CC1)C[C@H]2c1noc(-c2conc2C(F)(F)F)n1 [Example E29] | 5.30 to 6.30 |
| Cc1ccc(C)c(-c2nc([C@@H]3CC34CCN(S(N)(=O)=O)CC4)no2)c1 [Example 2] | > 7.00 |

**Q:** Item CC(C)Oc1cc(-c2nc([C@@H]3C(F)(F)C34CCN(S(N)(=O)=O)CC4)no2)ccn1 [Example E51] has what recorded pEC50?
**A:** 5.30 to 6.30

**Q:** Item Cc1onc(C2CC2)c1-c1noc(C2C(F)(F)C23CCN(S(N)(=O)=O)CC3)n1 (stereo not drawn) [Example C5] has what recorded pEC50?
**A:** > 7.00

**Q:** Item COc1ccc(Cl)cc1-c1noc(C2CC23CCN(S(=O)(=O)Cc2ccccn2)CC3)n1 (racemic) [Example B1] has what recorded pEC50?
**A:** 5.30 to 6.30

**Q:** Item NS(=O)(=O)N1CCC2(CC1)C[C@H]2c1noc(-c2cc(F)ccc2OC(F)(F)F)n1 [Example D21] has what recorded pEC50?
**A:** 6.30 to 7.00

**Q:** Item NS(=O)(=O)N1CCC2(CC1)C[C@H]2c1noc(-c2ccccc2)n1 [Example D8] has what recorded pEC50?
**A:** 5.30 to 6.30

**Q:** Item Cn1ncc(C(F)(F)F)c1-c1nc([C@@H]2C(F)(F)C23CCN(S(N)(=O)=O)CC3)no1 [Example 14] has what recorded pEC50?
**A:** > 7.00

**Q:** Item NS(=O)(=O)N1CCC2(CC2c2nc(-c3conc3C3CC3)no2)C(F)C1 (single isomer, unassigned) [Example I10] has what recorded pEC50?
**A:** 5.30 to 6.30

**Q:** Item NS(=O)(=O)N1CCC2(CC1)C[C@H]2c1noc(-c2ccccc2Oc2ccccc2)n1 [Example E71] has what recorded pEC50?
**A:** 6.30 to 7.00
